# System: 521955-158-R2-J5-PDC complex spheroid growth, % test/control
# test-protocol: Anticancer human tumor 521955-158-R2-J5-PDC patient-derived pancreatic carcinoma cell line growth inhibition [Asc]
# settings: second compound 0.1 µM; first compound 0.949 µM; active compounds read low
measurement-type: viability, T/C (%)
Expressed in %, but write only the number.

QUERY: Tell me measured viability, T/C for Cc1nc(N2CCC3(CC2)COC(C)C3N)c(CO)nc1Sc1ccnc(N)c1Cl (stereo unspecified) + Cc1c(S(C)(=O)=O)c(-c2cc(F)cc(N3CCN(c4ccc(NS(=O)(=O)c5ccc(NC(CCN6CCC(C(=O)OCCCP(=O)(O)O)CC6)CSc6ccccc6)c(S(=O)(=O)C(F)(F)F)c5)cc4)CC3)c2)c(-c2ccc(Cl)cc2)n1C(C)C please.
RESULT: 34.9

----------
// reported viability, T/C per item
# Tested on: 521955-158-R2-J5-PDC complex spheroid growth, % test/control
# test-protocol: Anticancer human tumor 521955-158-R2-J5-PDC cell line growth inhibition [Asc];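 note: spheroids exposed to agents for 7 days before readout; 100% = DMSO vehicle control viability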
# settings: second compound 0.01 µM; first compound 0.01 µM; active compounds read low

- molecule: "CCN1CCN(Cc2ccc(Nc3ncc(F)c(-c4cc(F)c5nc(C)n(C(C)C)c5c4)n3)nc2)CC1 + CNC(C)C(=O)NC1CN(S(=O)(=O)c2cccc(S(=O)(=O)N3CCC4CCC(C(=O)NC(c5ccccc5)c5ccccc5)N4C(=O)C(NC(=O)C(C)NC)C3)c2)CCC2CCC(C(=O)NC(c3ccccc3)c3ccccc3)N2C1=O"
  viability, T/C: "85.6%"

Now turn to the next molecule.
QUERY: Tell me measured viability, T/C for NC1CCC(NC2CC2c2ccccc2)CC1 (configuration not stated) + CNC(C)C(=O)NC1CN(S(=O)(=O)c2cccc(S(=O)(=O)N3CCC4CCC(C(=O)NC(c5ccccc5)c5ccccc5)N4C(=O)C(NC(=O)C(C)NC)C3)c2)CCC2CCC(C(=O)NC(c3ccccc3)c3ccccc3)N2C1=O please.
RESULT: 80.9%

----------
# Test system: 521955-158-R2-J5-PDC complex spheroid growth, % test/control
# test-protocol: Anticancer human tumor 521955-158-R2-J5-PDC cell line growth inhibition [Asc];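 note: spheroids exposed to agents for 7 days before readout; 100% = DMSO vehicle control viability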
# settings: second compound 0.03 µM; first compound 0.00316 µM; active compounds read low
measurement-type: viability, T/C (%)
Expressed in %, but write only the number.

- compound: "NC1CCC(NC2CC2c2ccccc2)CC1 (stereo unspecified) + CCN1C(C(=O)NC23CCC(C(=O)O)(CC2)CC3)C(c2cccc(Cl)c2F)C2(C(=O)Nc3cc(Cl)ccc32)C12CCCCC2"
  viability, T/C, %: 64.8

Now turn to the next compound.
QUERY: Answer briefly: viability, T/C recorded on 521955-158-R2-J5-PDC complex spheroid growth, % test/control for Cn1ncnc1[C@H]1c2n[nH]c(=O)c3cc(F)cc(c23)N[C@@H]1c1ccc(F)cc1 + CCN1C(C(=O)NC23CCC(C(=O)O)(CC2)CC3)C(c2cccc(Cl)c2F)C2(C(=O)Nc3cc(Cl)ccc32)C12CCCCC2
RESULT: 100

----------
# Tested on: 521955-158-R2-J5-PDC complex spheroid growth, % test/control
# test-protocol: Anticancer human tumor 521955-158-R2-J5-PDC cell line growth inhibition [Asc];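 note: spheroids exposed to agents for 7 days before readout; 100% = DMSO vehicle control viability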
# settings: second compound 0.3 µM; first compound 10 µM; active compounds read low
measurement-type: viability, T/C (%)
Expressed in %, but write only the number.

Worked set:
- molecule: "C=CC(=O)N1CCN(c2nc(=O)n(-c3c(C)ccnc3C(C)C)c3nc(-c4c(O)cccc4F)c(F)cc23)C(C)C1 (centres undefined) + CCN1C(C(=O)NC23CCC(C(=O)O)(CC2)CC3)C(c2cccc(Cl)c2F)C2(C(=O)Nc3cc(Cl)ccc32)C12CCCCC2"
  target-system: "521955-158-R2-J5-PDC complex spheroid growth, % test/control"
  measurement-type: "viability, T/C"
  unit: "%"
  assay-result: 91.2
- molecule: "C=C(F)C(=O)N1CCN(c2nc(OCC3CCCN3C)nc3c2CCN(c2cccc4cccc(Cl)c24)C3)CC1CC#N (centres undefined) + CCN1C(C(=O)NC23CCC(C(=O)O)(CC2)CC3)C(c2cccc(Cl)c2F)C2(C(=O)Nc3cc(Cl)ccc32)C12CCCCC2"
  target-system: "521955-158-R2-J5-PDC complex spheroid growth, % test/control"
  measurement-type: "viability, T/C"
  unit: "%"
  assay-result: 0.27
- molecule: "C#Cc1c(F)ccc2cc(O)cc(-c3ncc4c(N5CC6CCC(C5)N6)nc(OCC56CCCN5CC(F)C6)nc4c3F)c12 (centres undefined) + CCN1C(C(=O)NC23CCC(C(=O)O)(CC2)CC3)C(c2cccc(Cl)c2F)C2(C(=O)Nc3cc(Cl)ccc32)C12CCCCC2"
  target-system: "521955-158-R2-J5-PDC complex spheroid growth, % test/control"
  measurement-type: "viability, T/C"
  unit: "%"
  assay-result: 39.2

Now turn to the next molecule.
QUERY: Tell me measured viability, T/C for O=C(c1cc(Cc2n[nH]c(=O)c3ccccc23)ccc1F)N1CCN(C(=O)C2CC2)CC1 + CCN1C(C(=O)NC23CCC(C(=O)O)(CC2)CC3)C(c2cccc(Cl)c2F)C2(C(=O)Nc3cc(Cl)ccc32)C12CCCCC2 please.
RESULT: 66.8
